target: UniProt:P61073
Sequence (P61073 whole entry): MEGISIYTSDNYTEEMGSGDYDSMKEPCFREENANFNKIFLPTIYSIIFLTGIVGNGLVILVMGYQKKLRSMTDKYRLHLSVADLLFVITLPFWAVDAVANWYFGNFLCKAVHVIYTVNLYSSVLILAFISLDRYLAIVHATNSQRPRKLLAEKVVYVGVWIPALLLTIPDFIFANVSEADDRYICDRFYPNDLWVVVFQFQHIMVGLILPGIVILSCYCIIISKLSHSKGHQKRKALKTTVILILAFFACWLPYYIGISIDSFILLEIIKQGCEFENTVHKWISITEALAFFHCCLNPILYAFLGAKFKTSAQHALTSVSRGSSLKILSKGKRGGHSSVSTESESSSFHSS
test: inhibition of CXCL12
protocol_conditions: read-out: SDF-1 Ca2+ Flux CEM-1 IC50; SDF-1 induced calcium release; duplicate
reported_endpoint: pIC50
Reminder that pIC50 is minus the log10 of a molar concentration.

Return reported pIC50; argument: NCCCCN(C[C@H]1CN(C(=O)Nc2ccccc2)CCN1)[C@H]1CCCc2cccnc21 [Compound 57a] 4.68
